These entries and their values trace back to BindingDB's records for doi:10.3109/14756360903027816.

Quick record: IC50, Acetylcholinesterase (Mus musculus).
Property label: IC50 (nM)

- C#CCNS(=O)(=O)c1ccc(-c2c3ccc(=[N+](CC)CC)cc-3oc3cc(N(CC)CC)ccc23)c(S(=O)(=O)[O-])c1 [Lissamine propargyl sulfonamide (6)]: 50
- C#CCNS(=O)(=O)c1ccc(C2=c3cc4c5c(c3Oc3c2cc2c6c3CCCN6CCC2)CCC[N+]=5CCC4)c(S(=O)(=O)[O-])c1 [Texas Red propargyl sulfonamide (7)]: 700
